Data origin, for the record: patent US8815872B2

Target: Pyk2(h) (Homo sapiens)
Construct: purchased Caliper Life Sciences
Sequence (Q14289 whole entry): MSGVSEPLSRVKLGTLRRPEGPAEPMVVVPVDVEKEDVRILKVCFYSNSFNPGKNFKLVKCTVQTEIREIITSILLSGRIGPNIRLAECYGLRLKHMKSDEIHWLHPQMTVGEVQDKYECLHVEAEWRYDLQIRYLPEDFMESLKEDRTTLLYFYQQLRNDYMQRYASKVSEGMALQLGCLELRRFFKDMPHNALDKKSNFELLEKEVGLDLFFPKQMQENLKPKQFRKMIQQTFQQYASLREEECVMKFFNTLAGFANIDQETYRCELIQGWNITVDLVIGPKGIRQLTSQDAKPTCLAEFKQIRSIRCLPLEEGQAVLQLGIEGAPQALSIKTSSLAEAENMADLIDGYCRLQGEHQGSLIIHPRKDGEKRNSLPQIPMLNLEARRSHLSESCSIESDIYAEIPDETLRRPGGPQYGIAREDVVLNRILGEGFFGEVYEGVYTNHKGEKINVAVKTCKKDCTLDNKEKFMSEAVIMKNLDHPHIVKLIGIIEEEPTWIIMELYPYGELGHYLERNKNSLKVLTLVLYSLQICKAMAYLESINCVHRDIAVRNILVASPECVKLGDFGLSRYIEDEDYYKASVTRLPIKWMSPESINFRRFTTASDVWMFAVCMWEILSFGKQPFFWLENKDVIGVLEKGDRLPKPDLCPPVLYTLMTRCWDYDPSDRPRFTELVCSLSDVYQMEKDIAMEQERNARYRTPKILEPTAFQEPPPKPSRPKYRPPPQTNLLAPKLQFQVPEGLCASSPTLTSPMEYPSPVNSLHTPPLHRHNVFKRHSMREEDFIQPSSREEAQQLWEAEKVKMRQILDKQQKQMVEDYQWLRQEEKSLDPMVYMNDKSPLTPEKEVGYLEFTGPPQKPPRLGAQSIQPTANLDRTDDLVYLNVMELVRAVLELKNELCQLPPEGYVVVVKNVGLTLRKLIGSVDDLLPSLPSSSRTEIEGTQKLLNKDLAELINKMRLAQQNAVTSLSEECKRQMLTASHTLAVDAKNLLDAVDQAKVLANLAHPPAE
Test: Other kinases, single-concentration inhibition (Table 3)
Format: biochemical
Settings: 1 μM
READOUT_KIND: % inhibition Pyk2(h) (%)

Known results for compounds:
1) CN1CCN(c2ccc3cc2OCCS[C@@H]2C[C@@H]4C[C@H]2[C@@H](Nc2nc(ncc2F)N3)[C@H]4C(N)=O)CC1 :: 27
2) NC(=O)[C@H]1[C@H]2C[C@H]3[C@H]1Nc1nc(ncc1F)Nc1cccc(c1)C(=O)CS[C@@H]3C2 :: 93

A = N#Cc1ccc2cc1NC(=O)CS[C@@H]1C[C@@H]3C[C@H]1[C@@H](Nc1nc(ncc1F)N2)[C@H]3C(N)=O
B = NC(=O)[C@H]1[C@H]2C[C@H]3[C@H]1Nc1nc(ncc1F)Nc1cccc(c1)NC(=O)CS[C@@H]3C2
Which record shows the lower % inhibition Pyk2(h): the first, A , or the second, B ? Could you answer with the label of the item you picked?
B
(B: 34%, A: 99%)

----------
Biological target: Aurora A (Homo sapiens, UniProt O14965)
Construct: N-terminal GST fusion with full length Aurora A (1-403 amino acids)
Sequence (O14965 whole entry, the tested form may be a part): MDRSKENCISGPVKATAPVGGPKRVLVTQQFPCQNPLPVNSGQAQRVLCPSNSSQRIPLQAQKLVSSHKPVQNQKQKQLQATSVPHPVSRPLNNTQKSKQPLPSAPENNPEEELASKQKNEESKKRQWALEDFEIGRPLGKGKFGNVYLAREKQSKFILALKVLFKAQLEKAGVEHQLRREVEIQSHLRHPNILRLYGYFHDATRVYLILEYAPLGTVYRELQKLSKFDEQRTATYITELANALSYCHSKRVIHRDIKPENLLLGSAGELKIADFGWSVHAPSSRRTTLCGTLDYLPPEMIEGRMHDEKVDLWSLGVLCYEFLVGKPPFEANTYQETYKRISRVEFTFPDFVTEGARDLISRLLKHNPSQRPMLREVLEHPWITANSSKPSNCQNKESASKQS
Experiment: Aurora A enzyme assay (Caliper LC3000 mobility shift)
Description: The Aurora and other kinase assays described here were performed on two Caliper Life Sciences systems, the LC3000 and the Desktop Profiler. […] The plate was read on a Caliper LC 3000 in an Off-Chip mobility shift assay format, using the following parameters for a 12-sipper chip: screening pressure −1.8 psi, upstream voltage −2700, downstream voltage −1000. […]
Reported IC50 values follow for various molecules

Known results for molecules:
1. NC(=O)[C@H]1[C@@H]2CC3CNC(=O)c4cccc(c4)Nc4ncc(F)c(n4)N[C@@H]1[C@@H]3C2 (stereo partly shown) [drawing 254] :: 1 to 100 nM
2. NC(=O)[C@H]1[C@@H]2C[C@H]3CNCC(=O)Nc4cccc(c4)Nc4ncc(F)c(n4)N[C@@H]1[C@@H]3C2 :: 101 to 1000 nM
3. NC(=O)[C@H]1[C@H]2C[C@H]3[C@H]1Nc1nc(ncc1F)Nc1cccc(c1)NC(=O)CS[C@@H]3C2 [drawing 221] :: 1 to 100 nM
4. NC(=O)[C@H]1[C@H]2C[C@H]3[C@H]1Nc1nc(ncc1F)Nc1cccc(c1)COC(=O)N[C@@H]3C2 :: 1 to 100 nM
5. NC(=O)[C@H]1[C@H]2C[C@H]3[C@H]1Nc1nc(ncc1F)Nc1cccc(c1)CCN[C@@H]3C2 :: 101 to 1000 nM
6. CN1CCN(c2ccc3cc2NC(=O)CS[C@@H]2C[C@@H]4C[C@H]2[C@@H](Nc2nc(ncc2F)N3)[C@H]4C(N)=O)CC1 [drawing 222] :: 1 to 100 nM

Let us examine a further case.
Fill blank: measured IC50 of the molecule NC(=O)[C@H]1C([C@@H](O)CO)CC2[C@H]1Nc1nc(ncc1F)Nc1cccc(c1)OC[C@H](O)[C@H]2O (stereo partly shown) is ____.
1000 to 6250 nM

----------
Biological target: Ret(h) (Homo sapiens)
Construct: purchased Caliper Life Sciences
Sequence (P07949 29-1114): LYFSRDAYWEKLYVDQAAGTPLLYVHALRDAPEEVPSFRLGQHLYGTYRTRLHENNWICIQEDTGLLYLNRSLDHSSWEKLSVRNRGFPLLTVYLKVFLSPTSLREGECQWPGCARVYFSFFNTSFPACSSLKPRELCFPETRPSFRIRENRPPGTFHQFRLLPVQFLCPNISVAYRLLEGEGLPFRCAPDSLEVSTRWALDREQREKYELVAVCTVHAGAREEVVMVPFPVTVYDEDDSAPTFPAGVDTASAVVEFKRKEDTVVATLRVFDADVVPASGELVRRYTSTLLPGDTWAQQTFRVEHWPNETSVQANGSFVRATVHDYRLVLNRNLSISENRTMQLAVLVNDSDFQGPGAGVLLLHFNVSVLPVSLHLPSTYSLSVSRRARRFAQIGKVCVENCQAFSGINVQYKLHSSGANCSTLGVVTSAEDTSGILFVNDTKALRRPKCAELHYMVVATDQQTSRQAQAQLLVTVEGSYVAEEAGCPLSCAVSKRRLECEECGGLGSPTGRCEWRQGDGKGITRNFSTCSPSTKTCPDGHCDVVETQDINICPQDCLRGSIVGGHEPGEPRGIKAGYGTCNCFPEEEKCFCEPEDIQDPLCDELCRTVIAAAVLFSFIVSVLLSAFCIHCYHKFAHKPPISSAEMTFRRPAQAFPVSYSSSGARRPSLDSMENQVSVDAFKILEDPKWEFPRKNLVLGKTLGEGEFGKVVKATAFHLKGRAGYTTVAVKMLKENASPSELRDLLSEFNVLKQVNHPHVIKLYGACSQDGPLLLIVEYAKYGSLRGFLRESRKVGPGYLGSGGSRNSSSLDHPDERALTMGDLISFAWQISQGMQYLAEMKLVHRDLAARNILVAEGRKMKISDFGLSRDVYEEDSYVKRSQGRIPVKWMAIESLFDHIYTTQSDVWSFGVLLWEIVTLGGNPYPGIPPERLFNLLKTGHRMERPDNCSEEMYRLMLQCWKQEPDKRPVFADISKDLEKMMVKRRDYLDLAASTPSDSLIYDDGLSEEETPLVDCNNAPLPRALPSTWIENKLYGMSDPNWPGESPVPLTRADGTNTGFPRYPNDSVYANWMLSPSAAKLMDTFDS
Experiment: Other kinases, single-concentration inhibition (Table 3)
Assay type: biochemical
Conditions: 1 μM
READOUT_KIND: % inhibition Ret(h) (%)

Known results for molecules:
1) CC[C@@H]1C[C@@H]2CCCOc3cccc(c3)Nc3ncc(F)c(n3)N[C@H]2[C@H]1C(N)=O (single isomer, unassigned) :: 52
2) NC(=O)[C@H]1[C@H]2C[C@H]3[C@H]1Nc1nc(ncc1F)Nc1cccc(c1)NC(=O)CS[C@@H]3C2 :: 4
3) NC(=O)[C@H]1[C@H]2C[C@H]3[C@H]1Nc1nc(ncc1F)Nc1cccc(c1)OCCS[C@@H]3C2 :: 11

a = NC(=O)[C@H]1[C@H]2C[C@H]3[C@H]1Nc1nc(ncc1F)Nc1cccc(c1)C(=O)CS[C@@H]3C2
b = CN1CCN(c2ccc3cc2OCCS[C@@H]2C[C@@H]4C[C@H]2[C@@H](Nc2nc(ncc2F)N3)[C@H]4C(N)=O)CC1
c = CC[C@@H]1C[C@@H]2/C=C\COc3cccc(c3)Nc3ncc(F)c(n3)N[C@H]2[C@H]1C(N)=O (single isomer, unassigned)
Sort these molecules on % inhibition Ret(h) so the largest reading comes first. List each label, following the requested order.
a, c, b
(a: 56%, c: 12%, b: 4%)
